reported_endpoint: pIC50
Value format note: pIC50 is -log10 of concentration (mol/L); just state the number.

The reported PDGFR B (Homo sapiens, UniProt P09619) pIC50 of CCc1cc(NC(=O)Nc2ccc(-c3cnc(Nc4cc(N5CCN(CCO)CC5)nc(C)n4)s3)cc2)no1 is 7.72

---

Assay: Pharmacokinetics and oral bioavailability in mice
Settings: male, ICR, mouse, plasma, iv, 2 mg/kg
Kindly state AUC(0-inf) for each of the entries shown.
Please respond with the number in ng·h/mL and leave the unit unwritten.

Notebook: CCc1cc(NC(=O)Nc2ccc(-c3cnc(Nc4cc(N5CCN(CC)CC5)ncn4)s3)cc2)no1 , AUC(0-inf) read as 1440

Notebook: CCc1cc(NC(=O)Nc2ccc(-c3cnc(Nc4cc(N5CCN(CCF)CC5)ncn4)s3)cc2)no1 , AUC(0-inf) read as 2720

Notebook: CCc1cc(NC(=O)Nc2ccc(-c3cnc(Nc4cc(OCCN5CCOCC5)ncn4)s3)cc2)no1 , AUC(0-inf) read as 2070

Hey, just so you know, these numbers are from patent US10047078B2.
